biological target: AAK1 (Homo sapiens, UniProt Q2M2I8); experiment: pAP2M1 cell-based assay (in-cell Western); settings: Hela cells co-transfected with AP2M1 and AAK1, 3 hr treatment; class symbols; read-out: AAK1 In-cell Western: IC50
Sequence (Q2M2I8 whole entry): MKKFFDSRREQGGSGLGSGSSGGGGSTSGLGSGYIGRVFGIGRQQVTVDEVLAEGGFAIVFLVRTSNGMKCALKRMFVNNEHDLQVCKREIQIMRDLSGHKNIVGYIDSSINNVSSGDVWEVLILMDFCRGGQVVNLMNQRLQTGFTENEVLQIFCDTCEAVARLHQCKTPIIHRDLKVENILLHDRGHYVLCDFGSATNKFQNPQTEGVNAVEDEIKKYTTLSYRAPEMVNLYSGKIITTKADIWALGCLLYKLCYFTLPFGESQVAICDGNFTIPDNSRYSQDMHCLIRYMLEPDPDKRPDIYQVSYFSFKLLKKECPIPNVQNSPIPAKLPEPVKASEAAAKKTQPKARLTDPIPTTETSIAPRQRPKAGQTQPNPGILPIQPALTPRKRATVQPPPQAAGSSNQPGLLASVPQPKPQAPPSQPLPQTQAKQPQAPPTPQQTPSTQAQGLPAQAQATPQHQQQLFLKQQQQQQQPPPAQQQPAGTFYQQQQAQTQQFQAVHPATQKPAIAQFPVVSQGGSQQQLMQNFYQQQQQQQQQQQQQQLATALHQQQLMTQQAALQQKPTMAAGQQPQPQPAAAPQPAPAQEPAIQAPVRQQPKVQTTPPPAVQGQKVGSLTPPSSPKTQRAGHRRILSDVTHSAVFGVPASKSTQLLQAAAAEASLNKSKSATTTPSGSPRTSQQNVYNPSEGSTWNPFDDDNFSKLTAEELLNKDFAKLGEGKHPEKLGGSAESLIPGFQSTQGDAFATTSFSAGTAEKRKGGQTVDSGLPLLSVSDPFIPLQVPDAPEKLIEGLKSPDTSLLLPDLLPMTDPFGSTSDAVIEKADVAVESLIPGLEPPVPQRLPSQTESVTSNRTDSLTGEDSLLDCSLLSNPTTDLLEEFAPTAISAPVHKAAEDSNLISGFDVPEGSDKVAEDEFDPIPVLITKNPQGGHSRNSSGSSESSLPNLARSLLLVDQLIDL
pIC50: −log10 of the molar value.

# MOLECULE, pIC50
data = [
    ("COc1ncccc1-c1cnn2ccc(N3CCN(C(=O)OC4CCNC4)CC3)nc12 (stereo not drawn)", "6.30 to 6.82"),
    ("C[C@@]1(OC(=O)N[C@@H]2CCN(c3ccn4ncc(-c5cccnc5OC5CC5)c4n3)C2)CCNC1", "< 5.82"),
    ("CC(C)(C)OC(=O)N1CCC(N2C[C@@H](OC(=O)N3CCN(c4ccn5ncc(-c6cccnc6OC6CC6)c5n4)CC3)CC2=O)CC1", "< 5.82"),
    ("O=C(O[C@H]1CO[C@H]2OCC[C@H]21)N1CCN(c2ccn3ncc(-c4cccnc4OC4CC4)c3n2)CC1", "6.30 to 6.82"),
    ("CN1C[C@@H](OC(=O)N2CCN(c3ccn4nccc4n3)CC2)CC1=O", "< 5.82"),
    ("NC(=O)[C@@H]1CN(c2ccn3ncc(-c4cccnc4OC4CC4)c3n2)CCN1C(=O)O[C@@H]1CNC(=O)C1", "< 5.82"),
    ("CC(C)(C)OC(=O)N1CCN(c2ccn3ncc(-c4cccnc4O)c3n2)CC1", "5.82 to 6.30"),
    ("COc1ncccc1-c1cnn2ccc(N3CCN(C(=O)O[C@H]4CO[C@H]5OCC[C@H]54)CC3)nc12", "6.30 to 6.82"),
    ("[2H]C([2H])([2H])N1C[C@@H](OC(=O)N2CCN(c3ccn4ncc(-c5cccnc5OC5CC5)c4n3)CC2)CC1=O", "6.30 to 6.82"),
    ("COc1ncccc1-c1cnn2ccc(N3CCN(C(=O)OC4CNC(=O)C4)CC3)nc12 (stereo not drawn)", "5.82 to 6.30"),
    ("CN1C[C@@H](OC(=O)N2CCN(c3ccn4ncc(Cl)c4n3)CC2)CC1=O", "< 5.82"),
    ("O=C(O[C@H]1CO[C@H]2OCC[C@H]21)N1CCN(c2ccn3ncc(-c4ccncn4)c3n2)CC1", "< 5.82"),
    ("CC(C)Oc1ncccc1-c1cnn2ccc(N3CCN(C(=O)O[C@]4(C)CCNC4)CC3)nc12", "6.82 to 7.29"),
    ("CC(C)Oc1ncccc1-c1cnn2ccc(N3CCN(C(=O)O[C@@]4(C)CCNC4)CC3)nc12", "< 5.82"),
    ("CC(C)(C)OC(=O)N1CC(Oc2ncccc2-c2cnn3ccc(N4CCN(C(=O)O[C@@H]5CNC(=O)C5)CC4)nc23)C1", "5.82 to 6.30"),
    ("CN1C[C@@H](OC(=O)N2CCN(c3ccn4ncc(-c5cccnc5OC5CCOC5)c4n3)CC2)CC1=O (stereo partly drawn)", "< 5.82"),
    ("Cc1cn2ncc(-c3cccnc3OC3CC3)c2nc1N1CCN(C(=O)O[C@H]2CC(=O)N(C)C2)CC1", "< 5.82"),
    ("CC1(OC(=O)N2CCN(c3ccn4ncc(-c5ccc(C(N)=O)cc5)c4n3)CC2)COC1", "5.82 to 6.30"),
    ("CN(CCNc1ccn2ncc(-c3cccnc3OC3CC3)c2n1)C(=O)O[C@@H]1CNC(=O)C1", "< 5.82"),
    ("O=C1NCC[C@H]1OC(=O)N1CCN(c2ccn3ncc(-c4cccnc4OC4CC4)c3n2)CC1", "< 5.82"),
    ("COCCN1C[C@@H](OC(=O)N2CCN(c3ccn4ncc(-c5cc(F)cnc5OC5CC5)c4n3)CC2)CC1=O", "5.82 to 6.30"),
    ("N#C[C@@H]1CN(c2ccn3ncc(-c4cccnc4OC4CC4)c3n2)CCN1C(=O)O[C@@H]1CNC(=O)C1", "< 5.82"),
    ("CN1C[C@@H](OC(=O)N2CCN(c3nc4c(-c5cccnc5OC5CCOC5)cnn4cc3F)CC2)CC1=O (stereo partly drawn)", "< 5.82"),
    ("O=C1C[C@H](OC(=O)N2CCN(c3ccn4ncc(-c5cccnc5NC5CCC5)c4n3)CC2)CN1", "< 5.82"),
]
